Data origin, for the record: PubChem BioAssay (Tox21)

# Experiment notes: A CellTox Green Cytotoxicity Assay to monitor cytotoxicity in HEK293 cells - 8 hour (AID 1224884); further: nearly all actives have a fitted effect of over 35% in size
# Measurement parameters: CellTox Green fluorescence; series mostly up to 76.8 µM
Records with an inconclusive call do not appear. Activity calls are given as the source filed them. The call rests on the fitted dose curve; in most records, active means well fitted activation curve with a large enough effect in the repeat runs; inconclusive means weak or mixed curves; inactive means flat fitted curve, though single readings scatter.
In this exercise, the only acceptable responses are true for active, false for inactive

What did this assay record as the result for `O=C(O)C(F)(F)C(F)(F)C(F)(F)C(F)(F)C(F)(F)C(F)(F)C(F)(F)C(F)(F)C(F)(F)F` ?
false

What did this assay record as the result for `CCCCCC[N+](=O)[O-]` ?
false

What did this assay record as the result for `O=C1NCN(c2ccccc2)C12CCN(CCCOc1ccc(F)cc1)CC2` ?
false

What did this assay record as the result for `CCCCOC(=O)c1ccccc1C(=O)OCc1ccccc1` ?
false

What did this assay record as the result for `C=CC(=O)OCCCCO` ?
false

What did this assay record as the result for `O=C(N[C@H](c1ccccc1)[C@@H]1CN2CCC1CC2)c1c(Cl)ccc(C(F)(F)F)c1Cl` ?
false

What did this assay record as the result for O=C(NC(=O)c1c(F)cccc1F)Nc1ccc(OC(F)(F)C(F)OC(F)(F)F)c(Cl)c1 (stereo unspecified) ?
false

What did this assay record as the result for `COc1nn(C(=O)NS(=O)(=O)c2ccccc2OC(F)(F)F)c(=O)n1C` ?
true

What did this assay record as the result for `CCN(C)N=O` ?
false

What did this assay record as the result for `O=S1(=O)OC(c2cc(Br)c(O)c(Br)c2)(c2cc(Br)c(O)c(Br)c2)c2ccccc21` ?
false

What did this assay record as the result for `c1ccc(CN2CCNCC2)cc1` ?
false
